System: Cluster 1 haloalkaliphilic bacteria
Assay: Antibiotic sensitivity, distribution of positive characters
Type: cell-based
Settings: share of strains of cluster 1 (78.5% similarity level, SSM) scored positive = clear zone around antibiotic disk; Medium A agar, 37° C., up to 14 days
Procedure: A light suspension of bacteria in alkaline, saline, nutrient broth was spread on the surface of alkaline nutrient, saline agar (Medium A) and allowed to dry. Commercially available antibiotic susceptibility test disks (Oxoid or Mast Laboratories: Merseyside, U.K.) were applied to the agar surface. The bacteria were cultivated at 37° C. for up to 14 days. Clear zones around the antibiotic disks indicated sensitivity and were recorded as positive.
Positions of bridges follow the written chain, without caps; N, C: chain ends. Non-standard residues stand in square brackets, D forms with d. Residues, ends and D or L forms follow the SMILES beside them. *: point of attachment. Ileψ(thiazoline)Cys = CC[C@H](C)[C@H](N)C1=N[C@H](C(=O)*)CS1; dOrn = NCCC[C@@H](N)C(=O)O
Distribution of positive characters: antibiotic sensitivity, Cluster 1 overview
Hey, just send me the number, nothing else.

CN(C)[C@@H]1C(O)=C(C(N)=O)C(=O)[C@@]2(O)C(O)=C3C(=O)c4c(O)cccc4[C@@](C)(O)[C@H]3C[C@@H]12 [tetracycline]
14
CC1(C)S[C@@H]2[C@H](NC(=O)[C@H](N)c3ccccc3)C(=O)N2[C@H]1C(=O)O [ampicillin]
0
CC[C@H](C)[C@H](N)C1=N[C@H](C(=O)N[C@@H](CC(C)C)C(=O)N[C@H](CCC(=O)O)C(=O)N[C@H](C(=O)N[C@H]2CCCCNC(=O)[C@H](CC(N)=O)NC(=O)[C@@H](CC(=O)O)NC(=O)[C@H](Cc3cnc[nH]3)NC(=O)[C@@H](Cc3ccccc3)NC(=O)[C@H]([C@@H](C)CC)NC(=O)[C@@H](CCCN)NC2=O)[C@@H](C)CC)CS1 [bacitracin] ({Ileψ(thiazoline)Cys}-L[dE]IK[dOrn]I[dF]H[dD]N; lactam 4-C)
100
[H]/N=C(/N)N[C@H]1[C@H](O)[C@@H](O)[C@H](O[C@@H]2O[C@@H](C)[C@](O)(C=O)[C@H]2O[C@@H]2O[C@@H](CO)[C@H](O)[C@@H](O)[C@@H]2NC)[C@@H](N/C(N)=N\[H])[C@@H]1O [streptomycin]
0
NC[C@H]1O[C@H](O[C@H]2[C@H](O)[C@@H](O[C@H]3O[C@H](CO)[C@@H](O)[C@H](N)[C@H]3O)[C@H](N)C[C@@H]2N)[C@H](O)[C@@H](O)[C@@H]1O [kanamycin]
0
CC[C@H]1OC(=O)[C@H](C)[C@@H](O[C@H]2C[C@@](C)(OC)[C@@H](O)[C@H](C)O2)[C@H](C)[C@@H](O[C@@H]2O[C@H](C)C[C@H](N(C)C)[C@H]2O)[C@](C)(O)C[C@@H](C)C(=O)[C@H](C)[C@@H](O)[C@]1(C)O [erythromycin]
86
O=C(N[C@H](CO)[C@H](O)c1ccc([N+](=O)[O-])cc1)C(Cl)Cl [chloramphenicol]
0
CN[C@H](CC(C)C)C(=O)N[C@H]1C(=O)N[C@@H](CC(N)=O)C(=O)N[C@H]2C(=O)N[C@H]3C(=O)N[C@H](C(=O)N[C@H](C(=O)O)c4cc(O)cc(O)c4-c4cc3ccc4O)[C@H](O)c3ccc(c(Cl)c3)Oc3cc2cc(c3O[C@@H]2O[C@H](CO)[C@@H](O)[C@H](O)[C@H]2O[C@H]2C[C@](C)(N)[C@H](O)[C@H](C)O2)Oc2ccc(cc2Cl)[C@H]1O [vancomycin]
0

# query: Distribution of positive characters: antibiotic sensitivity, Cluster 1 of entry CC(=O)O[C@H]1C[C@@]2(C)[C@@H](C[C@@H](O)[C@H]3[C@@]4(C)CC[C@@H](O)[C@@H](C)[C@@H]4CC[C@@]32C)/C1=C(\CCC=C(C)C)C(=O)O [fusidic acid]
14

Would you kindly repeat that for CO[C@H]1C[C@H](O[C@H]2[C@H](C)[C@@H](O[C@@H]3O[C@H](C)C[C@H](N(C)C)[C@H]3O)[C@@H](C)C[C@@]3(CO3)C(=O)[C@H](C)[C@@H](O)[C@@H](C)[C@@H](C)OC(=O)[C@@H]2C)O[C@@H](C)[C@@H]1O [oleandomycin] ?
0

Would you kindly repeat that for CO[C@H]1/C=C/O[C@@]2(C)Oc3c(C)c(O)c4c(O)c(c(/C=N/N5CCN(C)CC5)c(O)c4c3C2=O)NC(=O)/C(C)=C\C=C\[C@H](C)[C@H](O)[C@@H](C)[C@@H](O)[C@@H](C)[C@H](OC(C)=O)[C@@H]1C [rifampicin] ?
14

Would you kindly repeat that for CCn1cc(C(=O)O)c(=O)c2ccc(C)nc21 [nalidixic acid] ?
0

Would you kindly repeat that for COc1cccc(OC)c1C(=O)N[C@@H]1C(=O)N2[C@@H]1SC(C)(C)[C@@H]2C(=O)O [methicillin] ?
0

Would you kindly repeat that for CO[C@@H]1[C@@H](OC(N)=O)[C@@H](O)[C@H](Oc2ccc3c(O)c(NC(=O)c4ccc(O)c(CC=C(C)C)c4)c(=O)oc3c2C)OC1(C)C [novobiocin] ?
100
